These entries and their values trace back to PubChem BioAssay.

# test-description: small-molecule binders of probe aLefty1, primary screen, biochemical, small-molecule microarray, 635/667 nm fluorescence (AID 1153);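 note: score merges spot fluorescence with signal-to-noise ratio from the scanned slide images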
# experimental-context: higher = more signal
Classify by measured composite z-score: YES if it is equal to or exceeds 0.2, NO if it is smaller.

Inquiry: Reported composite z-score at or above 0.2? CC(C)(C)OC(=O)CC[C@]1(C(=O)O)N=C(c2ccc(OCCCO)cc2)O[C@H]1c1ccccc1N=[N+]=[N-]
Reply text: YES

Inquiry: Can you check O=C1OCCC/C=C\[C@H]2OC34C=CCN(Cc5ccccc5)C(=O)[C@H]3N(CCCCCCO)C(=O)[C@@H]4C12 (some centres undefined) next?
Reply text: NO

Inquiry: Can you check CC(C)(C)OC(=O)CC[C@@]1(C(N)=O)N=C(c2ccc(OCCCO)cc2)O[C@@H]1c1ccccc1 next?
Reply text: YES

Inquiry: Can you check CN(C)C(=O)[C@@]1(Cc2ccccc2CN=[N+]=[N-])N=C(c2ccc(OCCCO)cc2)O[C@H]1c1ccccc1 next?
Reply text: YES

Inquiry: Can you check O=C1NC(=O)C2C1C=CC(C(O)Cc1ccccc1)N2Nc1ccc(Cl)cc1Cl (centres undefined) next?
Reply text: YES

Inquiry: Can you check C#CCN(CC=C(C)C)[C@H](CO)c1ccccc1 next?
Reply text: YES

Inquiry: Can you check CCCC[C@H]1OB(O)C[C@H]2C1=C(COc1ccccc1)C[C@H]1C(=O)N(C)C(=O)[C@H]12 next?
Reply text: NO

Inquiry: Can you check COc1ccc([Si](C)(C)[C@H]2[C@H](CCO)O[C@@]3(C(=O)N(C)c4c(Br)cc(C)cc43)[C@@H]2C)cc1 next?
Reply text: NO

Inquiry: Can you check O=C1OCCC/C=C\[C@H]2OC34C=CCN(Cn5nnc6ccccc65)C(=O)[C@H]3N(CCCCCCO)C(=O)[C@@H]4C12 (some centres undefined) next?
Reply text: NO

Inquiry: Can you check O=C(c1ccccc1)N1Cc2ccccc2[C@@H]2OC(c3ccc(OCCCO)cc3)=N[C@]2(Cc2ccccc2)C1=O next?
Reply text: YES

Inquiry: Can you check CCCCC(=C=CC[C@@H](O)c1ccccc1OCCO)CCO next?
Reply text: NO

Inquiry: Can you check C=CC[C@]1(C(=O)NCCCOC)N=C(c2ccc(OCCCO)cc2)O[C@H]1c1ccccc1N=[N+]=[N-] next?
Reply text: YES

Inquiry: Can you check COC(=O)[C@@]1(Cc2ccc(OC)cc2)[C@H]2c3cc(C(=O)N(C)C)n(CCN4CNCC4=O)c3C[C@H]2CN1C(=O)c1ccccc1 next?
Reply text: YES

Inquiry: Can you check COc1ccc(C(O)C2C=CC3C(=O)N(c4ccccc4)C(=O)C3N2Nc2ccccc2F)cc1OCc1ccccc1 (centres undefined) next?
Reply text: YES

Inquiry: Can you check O=C1OCCC/C=C\[C@H]2OC34C=CCN(c5ccc6ccccc6c5)C(=O)[C@H]3N(CCCCCCO)C(=O)[C@@H]4C12 (some centres undefined) next?
Reply text: YES

Inquiry: Can you check C=CCOC(=O)[C@H]1[C@@H]2C(=O)O[C@@H](c3ccccc3)[C@@H](c3ccccc3)N2[C@@H](c2ccc(OCCOC(=O)[C@H]3C[C@H]4C(=O)N[C@@H](CC(C)C)C(=O)N4[C@H]3c3ccc(O)cc3)cc2)[C@]12C(=O)Nc1ccc(I)cc12 next?
Reply text: NO

Inquiry: Can you check COc1ccc([Si](C)(C)[C@H]2[C@H](CCO)O[C@@]3(C(=O)N(Cc4ccc(N5C(=O)COc6ccccc65)cc4)c4ccccc43)[C@@H]2C)cc1 next?
Reply text: NO

Inquiry: Can you check CCOC(=O)C[C@H]1[C@H](OC(=O)c2ccc(C(=O)c3ccccc3)cc2)[C@@H](NC(=O)c2ccc(-c3ccccc3)cc2)c2cc(OCCCO)ccc2N1C(=O)c1ccccc1 next?
Reply text: NO

Inquiry: Can you check COc1ccc(NN2C(C(O)c3ccc([N+](=O)[O-])cc3)C=CC3C(=O)N(C4CCCCC4)C(=O)C32)cc1 (centres undefined) next?
Reply text: YES

Inquiry: Can you check CN(C)CCCCCCNC(=O)[C@@H]1C[C@@H]2C(=O)N[C@@H](CCCCN)C(=O)N2[C@@H]1c1cccc(OCCO)c1 next?
Reply text: YES

Inquiry: Can you check C=CCC(OC(C)=O)[C@@H]1[C@@H](N(Cc2ccc(-c3ccccc3)cc2)C(=O)Cc2ccc(F)cc2)c2cc(OCCCO)ccc2N1C(=O)c1ccc(-c2ccccc2)cc1 (some centres undefined) next?
Reply text: NO

Inquiry: Can you check CC(=O)NCCCC[C@@H]1NC(=O)[C@@H]2C[C@H](C(=O)NCCCCCCNC(=O)CS)[C@H](c3cccc(OCCO)c3)N2C1=O next?
Reply text: NO

Inquiry: Can you check COC(=O)[C@@]1(Cc2ccccc2)[C@H]2c3cc(C(=O)N4CCCC4)n(Cc4nc5ccccc5[nH]4)c3C[C@H]2CN1C(=O)c1ccccc1 next?
Reply text: YES

Inquiry: Can you check COCCOC(=O)N1C(=O)[C@@]2(c3cc(C#CCCO)ccc31)[C@H](C(=O)N1CCN(c3ncccn3)CC1)[C@H]1C(=O)O[C@H](c3ccccc3)[C@H](c3ccccc3)N1[C@@H]2c1ccccc1OCCO next?
Reply text: NO

Inquiry: Can you check COCCOC(=O)N1C(=O)[C@@]2(c3cc(C#CC4=CCCCC4)ccc31)[C@H](C(=O)Nc1nc3ccccc3s1)[C@H]1C(=O)O[C@H](c3ccccc3)[C@H](c3ccccc3)N1[C@@H]2c1ccccc1OCCO next?
Reply text: YES

Inquiry: Can you check [N-]=[N+]=Nc1ccccc1[C@H]1OC(c2ccc(OCCCO)cc2)=N[C@@]1(Cc1ccccc1)C(=O)O next?
Reply text: YES

Inquiry: Can you check CC1(C)[C@@H]2CC(C(O)C3C=CC4C(=O)N(c5ccccc5)C(=O)C4N3Nc3ccccc3)=C[C@H]1C2 (some centres undefined) next?
Reply text: NO

Inquiry: Can you check CCCCC(O)C1C=CC2C(=O)N(c3ccccc3)C(=O)C2N1Nc1ccccc1F (centres undefined) next?
Reply text: YES

* * *

What composite z-score was measured for each of the following?
# Tested on: wheat germ agglutinin (Triticum aestivum), Alexa647-labelled
# test-description: wheat germ agglutinin binders on compound microarrays, profiling panel, artefact control for SMM control-protein annotation, biochemical, small-molecule microarray, 635/667 nm fluorescence (AID 1140);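 note: score merges 667 nm feature emission with signal to noise over triplicate slides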
# experimental-context: WGA-A647 binding, 635 nm fluorescence, higher = more signal
Just the number, please.

Inquiry: Looking for the measured composite z-score of C=C(COC)/C(=C/C[C@@H](OC(C)=O)c1ccc(OCCO)cc1)c1cc(C(=O)OC)ccc1OC , can you help?
Reply text: 0.195

Inquiry: Can you check [N-]=[N+]=NCc1ccccc1[C@@H]1OC(c2ccc(OCCCO)cc2)=N[C@]1(CCS(=O)(=O)c1ccccc1)C(=O)NCCN1CCOCC1 next?
Reply text: 1.31

Inquiry: Can you check O=C(NCc1ccccc1)[C@@H]1c2ccccc2C(=O)N(CC23CC4CC(CC(C4)C2)C3)[C@H]1c1ccc(CO)cc1 next?
Reply text: 0.31

Inquiry: Can you check O=C1C2C=CC(C(O)C3CCCCC3)N(Nc3ccc([N+](=O)[O-])cc3)C2C(=O)N1c1ccccc1 (centres undefined) next?
Reply text: 0.823

* * *

# Test system: Lefty1
# test-description: Lefty1 binders on small-molecule microarrays, primary screen, biochemical, small-molecule microarray, 635/667 nm fluorescence (AID 1139)
# experimental-context: small-molecule microarray binding, fluorescence 635/667; higher = more signal
Recorded composite z-score split into classes low band (below -0.04), middle band (-0.04 to below 0.6), high band (0.6 or more)

Inquiry: Category of C=CCC(OC(C)=O)[C@@H]1[C@@H](N(Cc2ccc(-c3cccc(C(F)(F)F)c3)o2)C(=O)c2ccc(-c3ccccc3)cc2)c2cc(OCCCO)ccc2N1C(=O)c1ccc(-c2ccccc2)cc1 (stereo not given in full) , please.
Reply text: middle band

Inquiry: Can you check C=CCNC(=O)[C@@H]1[C@H]2C(=O)O[C@H](c3ccccc3)[C@H](c3ccccc3)N2[C@H](c2ccc(OCCO)cc2)[C@@]12C(=O)Nc1ccc(C#Cc3ccc(OC)cc3)cc12 next?
Reply text: high band

Inquiry: Can you check COc1ccc(C(=O)O[C@H]2CC[C@]3(C)C4=C(CCC3C2(C)C)[C@]2(C)CC[C@H]([C@H](C)CCCC(C)C)[C@@]2(C)CC4)cc1 (stereo not given in full) next?
Reply text: middle band

Inquiry: Can you check COc1ccc([C@H]2OC[C@@H]3CC4(CC=CC4)C(=O)N32)cc1 next?
Reply text: high band

Inquiry: Can you check CN(C)C(=O)[C@@]1(Cc2ccccc2)N=C(c2ccc(OCCCO)cc2)O[C@H]1c1ccccc1N=[N+]=[N-] next?
Reply text: high band

Inquiry: Can you check COc1cc2c(cc1O)C=[N+](Cc1cccc(OC(F)(F)F)c1)CC2 next?
Reply text: low band

Inquiry: Can you check CCOC(=O)C[C@H]1[C@H](OC(=O)Cc2ccc3c(c2)OCO3)[C@@H](NC(=O)c2ccc(-c3ccccc3)cc2)c2cc(OCCCO)ccc2N1C(=O)c1ccc2ccccc2n1 next?
Reply text: middle band

Inquiry: Can you check CCCCN1CC=CC23O[C@@H]4/C=C\CCC(C)OC(=O)C4[C@H]2C(=O)N(CCCCCO)[C@@H]3C1=O (stereo not given in full) next?
Reply text: low band

Inquiry: Can you check COCCOC(=O)N1C(=O)[C@@]2(c3cc(C#CCCO)ccc31)[C@H](c1ccc(OCCO)cc1)N1[C@H](c3ccccc3)[C@H](c3ccccc3)OC(=O)[C@H]1[C@@H]2C(=O)N1CCN(c2ncccn2)CC1 next?
Reply text: high band

Inquiry: Can you check CCCCC(=C=CC[C@@H](O)c1ccccc1OCCO)CCO next?
Reply text: middle band

Inquiry: Can you check COc1ccc(C(O)C2C=CC3C(=O)N(C)C(=O)C3N2N2CCCCC2)c2ccccc12 (stereo not given) next?
Reply text: middle band

Inquiry: Can you check CC(C)(C)OC(=O)CC[C@@]1(C(=O)NCCN2CCOCC2)N=C(c2ccc(OCCCO)cc2)O[C@@H]1c1ccccc1N=[N+]=[N-] next?
Reply text: low band

Inquiry: Can you check CN1C(=O)C2C=CC(C(O)c3cc(C(F)(F)F)cc(C(F)(F)F)c3)N(N3CCCCC3)C2C1=O (stereo not given) next?
Reply text: low band

Inquiry: Can you check CCCC[C@H]1OB(O)C[C@H]2C1=C(COc1ccccc1)C[C@H]1C(=O)N(C)C(=O)[C@H]12 next?
Reply text: middle band

Inquiry: Can you check C#CCN(CC=C(C)C)[C@H](CO)c1ccccc1 next?
Reply text: low band
